The measurements presented in this section are drawn from ChEMBL document CHEMBL4814010.

assay-overview: Kinetic solubility of compound
Format: physicochemical
experimental-setup: read-out: Kinetic_solubility
metric: solubility kinetic (µM)
Numeric answer only, unit µM assumed.

Some entries whose results are on file:
>  <smiles-structure>
CCC[C@@H](NC(=O)c1cccc2c1NC(=O)C2)[C@@H](O)c1cccc(Cl)c1C

>  <solubility kinetic (µM)>
128

$$$$
>  <smiles-structure>
CCC[C@@H](NC(=O)c1cccc2c1CC(=O)N2)[C@@H](O)c1cccc(Cl)c1

>  <solubility kinetic (µM)>
52

$$$$
>  <smiles-structure>
CCC[C@@H](NC(=O)c1ccc2oc(=O)[nH]c2c1)[C@@H](O)c1ccccc1

>  <solubility kinetic (µM)>
299

$$$$
>  <smiles-structure>
CCC[C@@H](NC(=O)c1ccnc2[nH]c(=O)[nH]c12)[C@@H](O)c1cccc(Cl)c1C

>  <solubility kinetic (µM)>
200

$$$$

Can you share its solubility kinetic? I mean this molecule: `CCC[C@@H](NC(=O)c1cccc2[nH]c(=O)oc12)[C@@H](O)c1cccc(Cl)c1C`
326

====

assay-overview: Corrector activity of Z variant alpha1-antitrypsin misfolding (unknown origin) expressed in CHO cells assessed as inhibition of Z variant alpha1-antitrypsin polymerisation by measuring increase in Z alpha1 antitrypsin secretion
Format: cell-based
metric: EC50 (µM)
Numeric answer only, unit µM assumed.

Can you share its EC50? I mean this compound: `CCC[C@@H](NC(=O)c1cccc2c1CC(=O)N2)[C@@H](O)c1cccc(F)c1C`
0.631

====

assay-overview: Lipophilicity, log D of compound by chromatographic method
Type: physicochemical
Overview of recorded chromatographic logD for various compounds

>  <smiles-structure>
CCC[C@@H](NC(=O)c1cccc2c1CC(=O)N2)[C@@H](O)c1cccc(C)c1

>  <chromatographic logD>
3.6

$$$$

Can you share its chromatographic logD? I mean this compound: `CCC[C@@H](NC(=O)c1cccc2[nH]c(=O)[nH]c12)[C@@H](O)c1cccc(Cl)c1C`
4.4

Can you share its chromatographic logD? I mean this compound: `CCC[C@@H](NC(=O)c1ccc2oc(=O)[nH]c2c1)[C@@H](O)c1ccccc1C`
3.9

Can you share its chromatographic logD? I mean this compound: `CCC[C@@H](NC(=O)c1cccc2c1NC(=O)C2)[C@@H](O)c1cccc(Cl)c1C`
5.2

Can you share its chromatographic logD? I mean this compound: `CCC[C@@H](NC(=O)c1cccc2oc(=O)[nH]c12)[C@@H](O)c1cccc(Cl)c1C`
5.2

Can you share its chromatographic logD? I mean this compound: `CCC[C@@H](NC(=O)c1cccc2c1CC(=O)N2)[C@@H](O)c1ncccc1C`
3.2

Can you share its chromatographic logD? I mean this compound: `CCC[C@@H](NC(=O)c1ccc2oc(=O)[nH]c2c1)[C@@H](O)c1ccccc1`
3.2

Can you share its chromatographic logD? I mean this compound: `CCC[C@@H](NC(=O)c1ccnc2[nH]c(=O)[nH]c12)[C@@H](O)c1cccc(Cl)c1C`
3.9

Can you share its chromatographic logD? I mean this compound: `CCC[C@@H](NC(=O)c1cccc2c1CC(=O)N2)[C@@H](O)c1ccncc1C`
1.6

====

assay-overview: Clearance in rat hepatocytes measured per gm of tissue
Format: ADME, cell-based, Hepatocyte
metric: CLH (mL/min/g)
Numeric answer only, unit mL/min/g assumed.

Can you share its CLH? I mean this compound: `CCC[C@@H](NC(=O)c1cccc2c1CC(=O)N2)[C@@H](O)c1cccc(F)c1C`
7.4

====

assay-overview: Kinetic solubility of compound
Assay type: physicochemical
experimental-setup: read-out: Kinetic_solubility
metric: solubility kinetic (µM)
Numeric answer only, unit µM assumed.

Can you share its solubility kinetic? I mean this molecule: `CCC[C@@H](NC(=O)c1cccc2c1CC(=O)N2)[C@@H](O)c1ccncc1C`
300

Can you share its solubility kinetic? I mean this molecule: `CCC[C@@H](NC(=O)c1cccc2oc(=O)[nH]c12)[C@@H](O)c1cccc(Cl)c1C`
233

====

Overview of recorded solubility kinetic for various compounds
assay-overview: Kinetic solubility of compound
Type: physicochemical
experimental-setup: read-out: Kinetic_solubility

Some entries whose results are on file:
>  <smiles-structure>
CCC[C@@H](NC(=O)c1ccc2cc[nH]c2c1)[C@@H](O)c1ccccc1

>  <solubility kinetic>
≥ 439 µM

$$$$
>  <smiles-structure>
CCC[C@@H](NC(=O)c1cccc2c1CC(=O)N2)[C@@H](O)c1cccc(F)c1C

>  <solubility kinetic>
≥ 528 µM

$$$$

Can you share its solubility kinetic? I mean this compound: `CCC[C@@H](NC(=O)c1cccc2c1CC(=O)N2)[C@@H](O)c1ncccc1C`
≥ 392 µM

Can you share its solubility kinetic? I mean this compound: `CCC[C@@H](NC(=O)c1cccc2c1CC(=O)N2)[C@@H](O)c1cccc(C)c1`
19 µM

Can you share its solubility kinetic? I mean this compound: `CCC[C@@H](NC(=O)c1cccc2c1CC(=O)N2)[C@@H](O)c1ccccc1C(F)(F)F`
≥ 420 µM

====

assay-overview: Volume of distribution in Wistar Han rat at 1 mg/kg, iv
Type: ADME, organism-based
experimental-setup: in vivo
metric: Vd

Can you share its Vd? I mean this molecule: `CCC[C@@H](NC(=O)c1cccc2c1CC(=O)N2)[C@@H](O)c1cccc(F)c1C`
2.3 L/kg

====

assay-overview: Protein binding in rat plasma
Type: ADME, cell-free
experimental-setup: read-out: PPB (converted)
metric: fraction unbound

Can you share its fraction unbound? I mean this compound: `CCC[C@@H](NC(=O)c1cccc2c1CC(=O)N2)[C@@H](O)c1cccc(F)c1C`
0.19

====

Overview of recorded CLH for various compounds
assay-overview: Metabolic stability in human hepatocytes assessed as intrinsic clearance measured per gm of tissue
Assay type: ADME, cell-based, Hepatocyte
Numeric answer only, unit mL/min/g assumed.

>  <smiles-structure>
CCC[C@@H](NC(=O)c1cccc2[nH]c(=O)[nH]c12)[C@@H](O)c1cccc(Cl)c1C

>  <metric>
CLH

>  <observed>
1.8

$$$$
>  <smiles-structure>
CCC[C@@H](NC(=O)c1cccc2c1CC(=O)N2)[C@@H](O)c1ccccc1CC

>  <metric>
CLH

>  <observed>
1.6

$$$$
>  <smiles-structure>
CCC[C@@H](NC(=O)c1cccc2c1NC(=O)C2)[C@@H](O)c1cccc(Cl)c1C

>  <metric>
CLH

>  <observed>
3.7

$$$$
>  <smiles-structure>
CCC[C@@H](NC(=O)c1cccc2c1CC(=O)N2)[C@@H](O)c1cccc(F)c1C

>  <metric>
CLH

>  <observed>
0.3

$$$$
>  <smiles-structure>
CCC[C@@H](NC(=O)c1cccc2c1CC(=O)N2)[C@@H](O)c1ccccc1C

>  <metric>
CLH

>  <observed>
0.3

$$$$
>  <smiles-structure>
CCC[C@@H](NC(=O)c1cccc2c1CC(=O)N2)[C@@H](O)c1cccc(Cl)c1C

>  <metric>
CLH

>  <observed>
0.4

$$$$
>  <smiles-structure>
CCC[C@@H](NC(=O)c1cccc2c1CC(=O)N2)[C@@H](O)c1ccccc1Cl

>  <metric>
CLH

>  <observed>
0.4

$$$$
>  <smiles-structure>
CCC[C@@H](NC(=O)c1ccnc2c1CC(=O)N2)[C@@H](O)c1cccc(Cl)c1C

>  <metric>
CLH

>  <observed>
0.9

$$$$

# next compound below
Can you share its CLH? I mean this compound: `CCC[C@@H](NC(=O)c1cccc2c1CC(=O)N2)[C@@H](O)c1ccccc1C(F)(F)F`
0.2

====

assay-overview: Clearance in Wistar Han rat blood at 1 mg/kg, iv
Type: ADME, organism-based
metric: clearance (L/h/kg)
Numeric answer only, unit L/h/kg assumed.

Can you share its clearance? I mean this compound: `CCC[C@@H](NC(=O)c1cccc2c1CC(=O)N2)[C@@H](O)c1cccc(F)c1C`
4.14

====

assay-overview: Kinetic solubility of compound
Format: physicochemical
experimental-setup: read-out: Kinetic_solubility
metric: solubility kinetic

Some entries whose results are on file:
>  <smiles-structure>
CCC[C@@H](NC(=O)c1cccc2c1CC(=O)N2)[C@@H](O)c1cc(Cl)ccc1C

>  <observed>
≥ 408 µM

$$$$
>  <smiles-structure>
CCC[C@@H](NC(=O)c1ccc2oc(=O)[nH]c2c1)[C@@H](O)c1ccccc1C

>  <observed>
≥ 420 µM

$$$$

Can you share its solubility kinetic? I mean this compound: `CCC[C@@H](NC(=O)c1cccc2c1CC(=O)N2)[C@@H](O)c1ccccc1Cl`
≥ 356 µM

====

assay-overview: Kinetic solubility of compound
Assay type: physicochemical
experimental-setup: read-out: Kinetic_solubility
metric: solubility kinetic

Some entries whose results are on file:
>  <smiles-structure>
CCC[C@@H](NC(=O)c1cccc2c1CC(=O)N2)[C@@H](O)c1cccc(Cl)c1C

>  <solubility kinetic>
≥ 450 µM

$$$$
>  <smiles-structure>
CCC[C@@H](NC(=O)c1cncc2[nH]c(=O)[nH]c12)[C@@H](O)c1cccc(Cl)c1C

>  <solubility kinetic>
≥ 227 µM

$$$$
>  <smiles-structure>
CCC[C@@H](NC(=O)c1cccc2c1CC(=O)N2)[C@@H](O)c1ccccc1OC

>  <solubility kinetic>
≥ 299 µM

$$$$

Can you share its solubility kinetic? I mean this compound: `CCC[C@@H](NC(=O)c1cccc2c1CC(=O)N2)[C@@H](O)c1ccccc1C`
≥ 395 µM

Can you share its solubility kinetic? I mean this compound: `CCC[C@@H](NC(=O)c1cccc2c1CC(=O)N2)[C@@H](O)c1ccccc1CC`
≥ 316 µM
